The reported measurements were obtained from patent US20240083892A1.

Quick reference: pIC50 of the listed items.
tested.on: RIPK1 (Homo sapiens)
Construct: endogenous in cells; host or cells: HT-29 (KCLB 30038)
method.notes: Immunoblotting of TNFα induced phospho-RIPK1 (ser 166) levels
Type: cell-based
assay.setup: HMC3 cells; Z-VAD-FMK, human TNFα 20 ng/ml, SM-164 100 nM; 7 h, serum free media; read-out: Cell-base RIPK1 activity: phspho-RIPK1 (Ser166)
pIC50: −log10 of the molar value.
quantity.kind: pIC50

| smiles.entry | result |
| --- | --- |
| COc1cc(COc2ccc3c(c2)N(C)C(=O)[C@@H](NC(=O)n2cc(Cc4cccc(F)c4)cn2)CO3)ccn1 | > 8.00 |
| CN1C(=O)[C@@H](NC(=O)n2cc(Cc3cccc(F)c3)cn2)COc2ccc(OCC(=O)n3cc(O[Si](C)(C)C(C)(C)C)cn3)cc21 | 7.30 to 8.00 |
| CN1C(=O)[C@@H](NC(=O)n2cc(Cc3cccc(F)c3)cn2)COc2ccc(C(=O)N3CC4(COC4)C3)cc21 | 7.30 to 8.00 |

---

tested.on: RIPK1 (Homo sapiens, UniProt Q13546)
Construct: endogenous in cells; host or cells: HT-29 (KCLB 30038)
method.notes: Cell-based necroptosis assay for RIPK1 activity (cell viability by CCK-8)
assay.setup: HT-29 cells; Z-VAD-FMK 20 μM, human TNFα 10 ng/ml, SM-164 100 nM; 24 h; read-out: Cell-base RIPK1 activity: Necroptosis

| smiles.entry | IC50 |
| --- | --- |
| CN1CCN(C(=O)c2ccc3c(c2)N(C)C(=O)[C@@H](NC(=O)n2cc(Cc4cccc(F)c4)cn2)CO3)CC1 | 10 to 50 nM |
| CN1C(=O)[C@@H](NC(=O)n2cc(Cc3cccc(F)c3)cn2)COc2ccc(OCC(=O)N3CCCC3)cc21 | < 10 nM |
| CN1C(=O)[C@@H](NC(=O)n2cc(Cc3cccc(F)c3)cn2)COc2ccc(OCc3ccccc3)cc21 | < 10 nM |
| CN(Cc1ccncc1)C(=O)c1ccc2c(c1)N(C)C(=O)[C@@H](NC(=O)n1cc(Cc3cccc(F)c3)cn1)CO2 | < 10 nM |
| CN1C(=O)[C@@H](NC(=O)n2cc(Cc3cccc(F)c3)cn2)COc2ccc(C(=O)N3CCC(F)(F)CC3)cc21 | 10 to 50 nM |
| CN1C(=O)[C@@H](NC(=O)n2cc(Cc3cccc(F)c3)cn2)COc2ccc(OC3CCCCC3)cc21 | < 10 nM |
| CN1C(=O)[C@@H](NC(=O)n2cc(Cc3cccc(F)c3)cn2)COc2ccc(OCC(=O)N3CCCCC3)cc21 | < 10 nM |

---

Measured IC50 values are reported for all entries that follow.
tested.on: RIPK1 (Homo sapiens)
Construct: endogenous in cells; host or cells: HT-29 (KCLB 30038)
Sequence (Q13546 1-671): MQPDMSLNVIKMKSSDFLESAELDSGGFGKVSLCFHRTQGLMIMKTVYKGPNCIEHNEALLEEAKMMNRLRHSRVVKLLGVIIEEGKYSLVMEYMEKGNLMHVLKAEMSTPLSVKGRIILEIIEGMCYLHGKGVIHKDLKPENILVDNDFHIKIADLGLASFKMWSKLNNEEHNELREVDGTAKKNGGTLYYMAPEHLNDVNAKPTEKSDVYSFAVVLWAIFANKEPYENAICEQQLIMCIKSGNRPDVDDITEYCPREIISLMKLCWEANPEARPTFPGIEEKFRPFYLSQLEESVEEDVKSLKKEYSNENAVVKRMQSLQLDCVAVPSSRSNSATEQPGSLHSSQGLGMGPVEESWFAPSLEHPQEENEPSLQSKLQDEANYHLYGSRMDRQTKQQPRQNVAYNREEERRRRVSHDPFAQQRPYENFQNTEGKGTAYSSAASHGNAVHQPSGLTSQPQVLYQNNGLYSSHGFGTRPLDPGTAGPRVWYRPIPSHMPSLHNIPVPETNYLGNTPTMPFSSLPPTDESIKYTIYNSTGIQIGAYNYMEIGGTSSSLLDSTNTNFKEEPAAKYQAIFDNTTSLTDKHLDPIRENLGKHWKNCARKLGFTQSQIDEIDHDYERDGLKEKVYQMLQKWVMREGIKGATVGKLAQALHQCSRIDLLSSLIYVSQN
method.notes: Cell-based necroptosis assay for RIPK1 activity (cell viability by CCK-8)
assay.setup: HT-29 cells; Z-VAD-FMK 20 μM, human TNFα 10 ng/ml, SM-164 100 nM; 24 h; read-out: Cell-base RIPK1 activity: Necroptosis

| compound | tested.on | IC50 |
| --- | --- | --- |
| CN1C(=O)[C@@H](NC(=O)n2cc(Cc3cccc(F)c3)cn2)COc2ccc(OCCCC3CCCCC3)cc21 [Example 16] | RIPK1 (Homo sapiens) | < 10 nM |
| CN1C(=O)[C@@H](NC(=O)n2cc(Cc3cccc(F)c3)cn2)COc2ccc(C(=O)N3CCOCC3)cc21 [Example 9] | RIPK1 (Homo sapiens) | 10 to 50 nM |
| CN1C(=O)[C@@H](NC(=O)n2cc(Cc3cccc(F)c3)cn2)COc2ccc(OCC(=O)N3CCC(C(C)(C)O)C3)cc21 (stereo partly shown) [Example 48] | RIPK1 (Homo sapiens) | < 10 nM |
| CN1C(=O)[C@@H](NC(=O)n2cc(Cc3cccc(F)c3)cn2)COc2ccc(C(=O)N3CC4(COC4)C3)cc21 [Example 14] | RIPK1 (Homo sapiens) | 10 to 50 nM |
